molecular target: CB1 receptor (Homo sapiens, UniProt P21554); assay: [35S]-GTPγS binding assay on membranes from cells stably transfected with the CB1 gene, inhibition of CP55940 (EC80) stimulated binding; settings: concentration giving half maximal inhibition of GTPγS binding; EC80 of agonist CP55940
Sequence (P21554 whole entry): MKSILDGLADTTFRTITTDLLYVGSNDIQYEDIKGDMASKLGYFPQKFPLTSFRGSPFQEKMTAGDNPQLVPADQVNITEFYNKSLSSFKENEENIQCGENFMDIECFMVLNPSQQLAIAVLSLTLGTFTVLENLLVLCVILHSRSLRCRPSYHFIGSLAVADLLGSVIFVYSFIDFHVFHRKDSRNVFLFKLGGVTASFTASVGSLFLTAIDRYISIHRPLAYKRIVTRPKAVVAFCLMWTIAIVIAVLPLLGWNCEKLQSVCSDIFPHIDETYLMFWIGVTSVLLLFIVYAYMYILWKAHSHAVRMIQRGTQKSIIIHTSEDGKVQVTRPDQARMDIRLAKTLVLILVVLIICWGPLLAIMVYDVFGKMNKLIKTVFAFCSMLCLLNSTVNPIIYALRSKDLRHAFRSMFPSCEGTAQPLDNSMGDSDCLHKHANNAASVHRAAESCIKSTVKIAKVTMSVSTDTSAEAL

- compound: "Cc1ccc(NC(=O)c2nn(-c3ccc(Cl)cc3Cl)c(-c3ccc(OS(=O)(=O)CCC(F)(F)F)cc3)c2C)nc1 [Example 10]"
  display_unit: "nM"
  IC50: 1.95
